# setup.conditions: in DMF, 323.15 K
measure: solubility (mole fraction)

>  <smiles.repr>
Nc1ccc(Oc2ccc(N)cc2)cc1

>  <measured.number>
0.146

$$$$

###

# setup.conditions: in DMAc, 293.15 K
measure: solubility (mole fraction)

>  <smiles.repr>
Nc1ccc(Oc2ccc(N)cc2)cc1

>  <measured.number>
0.14

$$$$

###

# setup.conditions: in DMF, 333.15 K
measure: solubility (mole fraction)

>  <smiles.repr>
Nc1ccc(Oc2ccc(N)cc2)cc1

>  <result>
0.161

$$$$

###

# setup.conditions: in DMAc, 303.15 K

>  <smiles.repr>
Nc1ccc(Oc2ccc(N)cc2)cc1

>  <solubility (mole fraction)>
0.148

$$$$

###

# setup.conditions: in DMAc, 323.15 K

>  <smiles.repr>
Nc1ccc(Oc2ccc(N)cc2)cc1

>  <solubility (mole fraction)>
0.166

$$$$

###

# setup.conditions: in DMSO, 298.15 K

>  <smiles.repr>
Nc1ccc(Oc2ccc(N)cc2)cc1

>  <solubility (mole fraction)>
0.153

$$$$

###

# setup.conditions: in DMSO, 323.15 K
measure: solubility (mole fraction)

>  <smiles.repr>
Nc1ccc(Oc2ccc(N)cc2)cc1

>  <measured.number>
0.185

$$$$

###

# setup.conditions: in DMAc, 308.15 K

>  <smiles.repr>
Nc1ccc(Oc2ccc(N)cc2)cc1

>  <solubility (mole fraction)>
0.152

$$$$

###

# setup.conditions: in DMF, 303.15 K
measure: solubility (mole fraction)

>  <smiles.repr>
Nc1ccc(Oc2ccc(N)cc2)cc1

>  <measure>
solubility (mole fraction)

>  <result>
0.12

$$$$

###

# setup.conditions: in DMSO, 333.15 K
measure: solubility (mole fraction)

>  <smiles.repr>
Nc1ccc(Oc2ccc(N)cc2)cc1

>  <measured.number>
0.201

$$$$

###

# setup.conditions: in DMSO, 293.15 K

>  <smiles.repr>
Nc1ccc(Oc2ccc(N)cc2)cc1

>  <solubility (mole fraction)>
0.149

$$$$

###

# setup.conditions: in DMAc, 328.15 K
measure: solubility (mole fraction)

>  <smiles.repr>
Nc1ccc(Oc2ccc(N)cc2)cc1

>  <measure>
solubility (mole fraction)

>  <measured.number>
0.177

$$$$

###

# setup.conditions: in DMSO, 303.15 K

>  <smiles.repr>
Nc1ccc(Oc2ccc(N)cc2)cc1

>  <solubility (mole fraction)>
0.159

$$$$

###

# setup.conditions: in DMAc, 313.15 K

>  <smiles.repr>
Nc1ccc(Oc2ccc(N)cc2)cc1

>  <solubility (mole fraction)>
0.157

$$$$

###

# setup.conditions: in DMF, 313.15 K

>  <smiles.repr>
Nc1ccc(Oc2ccc(N)cc2)cc1

>  <solubility (mole fraction)>
0.132

$$$$

###

# setup.conditions: in DMAc, 318.15 K

>  <smiles.repr>
Nc1ccc(Oc2ccc(N)cc2)cc1

>  <solubility (mole fraction)>
0.164

$$$$

###

# setup.conditions: in DMF, 298.15 K

>  <smiles.repr>
Nc1ccc(Oc2ccc(N)cc2)cc1

>  <solubility (mole fraction)>
0.117

$$$$

###

# setup.conditions: in DMSO, 318.15 K

>  <smiles.repr>
Nc1ccc(Oc2ccc(N)cc2)cc1

>  <solubility (mole fraction)>
0.181

$$$$

###

# setup.conditions: in DMSO, 313.15 K
measure: solubility (mole fraction)

>  <smiles.repr>
Nc1ccc(Oc2ccc(N)cc2)cc1

>  <measure>
solubility (mole fraction)

>  <measured.number>
0.171

$$$$
